# System: Hodgkin's lymphoma cells (L540cy)
# test details: In vitro potency, CellTiter-Glo growth inhibition, L540cy
# Type: cell-based
# test context: 96 h, read-out: IC50 L540cy
measurement name: pIC50
The meaning of pIC50 here: minus log10 of the concentration in molar units.

As a guide, the following entries are already answered.
[
  {
    "smiles str": "CC[C@@]1(O)C(=O)OCc2c1cc1n(c2=O)Cc2c-1nc1cc3c(cc1c2CNC(=O)[C@H](C)N)OCO3",
    "system tested": "Hodgkin's lymphoma cells (L540cy)",
    "pIC50": 7.92
  },
  {
    "smiles str": "CC[C@@]1(O)C(=O)OCc2c1cc1n(c2=O)Cc2c-1nc1cc3c(cc1c2CNC(=O)[C@@H](N)CC(C)C)OCO3",
    "system tested": "Hodgkin's lymphoma cells (L540cy)",
    "pIC50": 8.30
  },
  {
    "smiles str": "CC[C@@]1(O)C(=O)OCc2c1cc1n(c2=O)Cc2c-1nc1cc3c(cc1c2CNC(=O)[C@@H](N)[C@@H](C)O)OCO3",
    "system tested": "Hodgkin's lymphoma cells (L540cy)",
    "pIC50": 7.57
  }
]

Now for the molecule whose pIC50 we want.
Using the record for CC[C@@]1(O)C(=O)OCc2c1cc1n(c2=O)Cc2c-1nc1cc3c(cc1c2CNC(=O)[C@@H](N)CCCCN)OCO3 , report its pIC50.
8.15

###

# Lookup of reported log10 IC50 keyed by entry
# Tested on: B-lymphocyte cancer cells (SU-DHL-4)
# test details: In vitro potency, CellTiter-Glo growth inhibition, SU-DHL-4
# Format: cell-based
# test context: Homo sapiens, SU-DHL-4, 96 h, read-out: IC50 SU-DHL-4
Could you please treat all values as log10 of IC50 in nM?

Below, 3 compounds whose answers are already recorded.
[
  {
    "compound": "CC[C@@]1(O)C(=O)OCc2c1cc1n(c2=O)Cc2c-1nc1cc3c(cc1c2CNC(=O)[C@@H](N)CCC(N)=O)OCO3 [Compound 3m]",
    "measured number": 1.85
  },
  {
    "compound": "CC[C@@]1(O)C(=O)OCc2c1cc1n(c2=O)Cc2c-1nc1cc3c(cc1c2CNC(=O)[C@@H](N)CC(C)C)OCO3 [Compound 3]",
    "measured number": 0.48
  },
  {
    "compound": "CC[C@@]1(O)C(=O)OCc2c1cc1n(c2=O)Cc2c-1nc1cc3c(cc1c2CNC(=O)[C@@H](N)CCSC)OCO3 [Compound 3e]",
    "measured number": 0.70
  }
]

Need log10 IC50, item CC[C@@]1(O)C(=O)OCc2c1cc1n(c2=O)Cc2c-1nc1cc3c(cc1c2CNC(=O)[C@@H](N)CC(=O)O)OCO3 [Compound 3j]
2.16

What value of log10 IC50 has been recorded for this entry: CC[C@@]1(O)C(=O)OCc2c1cc1n(c2=O)Cc2c-1nc1cc3c(cc1c2CNC(=O)[C@@H](N)CCCCN)OCO3 [Compound 3h]
1.15

So what's the measured log10 IC50 for this one? CC[C@@]1(O)C(=O)OCc2c1cc1n(c2=O)Cc2c-1nc1cc3c(cc1c2CNC(=O)[C@H](C)N)OCO3 [Compound 3a]
0.90

// query log10 IC50 value for entry CC[C@@]1(O)C(=O)OCc2c1cc1n(c2=O)Cc2c-1nc1cc3c(cc1c2CNC(=O)[C@@H](N)[C@@H](C)O)OCO3 [Compound 3l]
1.20

Tell me the measured log10 IC50 of CC[C@@]1(O)C(=O)OCc2c1cc1n(c2=O)Cc2c-1nc1cc3c(cc1c2CNC(=O)[C@@H](N)C(C)C)OCO3 [Compound 3b] , please.
0.30

Which measured log10 IC50 value corresponds to CC[C@@]1(O)C(=O)OCc2c1cc1n(c2=O)Cc2c-1nc1cc3c(cc1c2CNC(=O)C(C)(C)N)OCO3 [Compound 3d] ?
0.48
